target: ICAM-1 binding to immobilized Mac-1 (Homo sapiens, UniProt P05107+P11215); construct: made in house; host or cells: transfected 293 cells (Mac-1); experiment: Mac-1/ICAM-1 screening assay (solid-phase ELISA); conditions: read-out: Mac-1/ICAM IC50
Sequence (P05107 23-769, other chains not shown): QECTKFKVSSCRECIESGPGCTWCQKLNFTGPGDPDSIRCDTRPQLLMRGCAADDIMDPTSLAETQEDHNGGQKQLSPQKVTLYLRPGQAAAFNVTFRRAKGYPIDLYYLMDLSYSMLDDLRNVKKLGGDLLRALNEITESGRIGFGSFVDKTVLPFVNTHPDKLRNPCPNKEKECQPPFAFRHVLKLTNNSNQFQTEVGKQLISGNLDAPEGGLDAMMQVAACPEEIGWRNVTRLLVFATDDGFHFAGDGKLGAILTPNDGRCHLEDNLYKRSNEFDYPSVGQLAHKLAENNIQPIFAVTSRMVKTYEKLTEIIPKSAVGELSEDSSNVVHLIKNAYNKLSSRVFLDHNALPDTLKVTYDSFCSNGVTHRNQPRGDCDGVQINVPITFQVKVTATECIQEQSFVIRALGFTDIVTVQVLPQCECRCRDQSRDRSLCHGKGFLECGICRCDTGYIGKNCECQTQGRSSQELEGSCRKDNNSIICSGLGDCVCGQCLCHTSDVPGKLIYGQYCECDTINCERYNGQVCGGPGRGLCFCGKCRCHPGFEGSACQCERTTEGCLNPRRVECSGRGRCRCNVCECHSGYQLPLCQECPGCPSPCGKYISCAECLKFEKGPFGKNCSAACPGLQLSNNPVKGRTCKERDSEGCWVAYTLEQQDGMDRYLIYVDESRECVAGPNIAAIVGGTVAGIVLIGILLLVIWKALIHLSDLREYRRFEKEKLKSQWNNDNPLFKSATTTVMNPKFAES
measurement_name: pIC50
Reminder that pIC50 is minus the log10 of a molar concentration.

| structure_as_smiles | pIC50 |
| --- | --- |
| O=C(NCc1cccc2[nH]ccc12)c1ccc(C(=O)N[C@@H](CNCc2ccccc2)C(=O)O)c(Cl)c1 | 5.85 |

Give pIC50 for COc1cc(C(=O)NC[C@H](NC(=O)c2ccc(C(=O)NCc3cccc(O)c3)cc2Cl)C(=O)O)nc2ccccc12 tested on ICAM-1 binding to immobilized Mac-1 (Homo sapiens, UniProt P05107+P11215).
6.28

Give pIC50 for COc1cccc(C(=O)NC[C@H](NC(=O)c2ccc(C(=O)NCc3cccc(O)c3)cc2Cl)C(=O)O)c1 tested on ICAM-1 binding to immobilized Mac-1 (Homo sapiens, UniProt P05107+P11215).
7.36

Give pIC50 for O=C(CCc1cccc(O)c1)c1ccc(C(=O)N[C@@H](CNC(=O)c2cccs2)C(=O)O)c(Cl)c1 tested on ICAM-1 binding to immobilized Mac-1 (Homo sapiens, UniProt P05107+P11215).
7.36

* * *

system: cell-surface Mac-1 adhesion to immobilized fibrinogen (HL-60 cells); assay: Mac-1/Fibrinogen cell-based screening assay; set-up: species or system human; settings: Homo sapiens, HL-60, HL-60 cells; read-out: Mac-1/Fgn Cell based Assay IC50
Item-by-item account of pIC50
Reminder that pIC50 is minus the log10 of a molar concentration.

| compound | study_system | pIC50 |
| --- | --- | --- |
| COC(=O)c1cccc(C(=O)NC[C@H](NC(=O)c2ccc(C(=O)NCc3cccc(O)c3)cc2Cl)C(=O)O)c1 [Example 136] | cell-surface Mac-1 adhesion to immobilized fibrinogen (HL-60 cells) | 6.92 |
| O=C(NCc1cccc(O)c1)c1ccc(C(=O)N[C@@H](CNC(=O)c2cccc(O)c2)C(=O)O)c(Cl)c1 [Example 132] | cell-surface Mac-1 adhesion to immobilized fibrinogen (HL-60 cells) | 8.48 |
| Cc1ccc(C(=O)NC[C@H](NC(=O)c2c(Cl)cc(C(=O)NCc3cccc(O)c3)cc2Cl)C(=O)O)s1 [Example 358] | cell-surface Mac-1 adhesion to immobilized fibrinogen (HL-60 cells) | 8.19 |
| O=C(NCc1cccc(O)c1)c1ccc(C(=O)N[C@@H](CNC(=O)c2ccc([N+](=O)[O-])cc2)C(=O)O)c(Cl)c1 [Example 142] | cell-surface Mac-1 adhesion to immobilized fibrinogen (HL-60 cells) | 6.56 |
| N[C@H](C(=O)NC[C@H](NC(=O)c1ccc(C(=O)NCc2cccc(O)c2)cc1Cl)C(=O)O)c1ccccc1 [Example 285] | cell-surface Mac-1 adhesion to immobilized fibrinogen (HL-60 cells) | 6.87 |

Indicate its recorded pIC50; the compound in question is CC(C)C[C@H](N)C(=O)NC[C@H](NC(=O)c1ccc(C(=O)NCc2cccc(O)c2)cc1Cl)C(=O)O [Example 277]
6.55

Indicate its recorded pIC50; the compound in question is C[C@@H](NC(=O)c1cc(Cl)c(C(=O)N[C@@H](CNC(=O)c2ccccc2)C(=O)O)c(Cl)c1)c1cccc2ccccc12 [Example 347]
7.88

* * *

target: LFA-1 binding to immobilized ICAM-1 (Homo sapiens, UniProt P05107+P20701); construct: made in house; host or cells: transfected 293 cells (LFA-1); assay: LFA-1/ICAM-1 protein-protein assay (solid-phase ELISA); conditions: read-out: LFA-1/ICAM-1 Protein-Protein Assay IC50
Sequence (P20701 26-1170, one chain of several): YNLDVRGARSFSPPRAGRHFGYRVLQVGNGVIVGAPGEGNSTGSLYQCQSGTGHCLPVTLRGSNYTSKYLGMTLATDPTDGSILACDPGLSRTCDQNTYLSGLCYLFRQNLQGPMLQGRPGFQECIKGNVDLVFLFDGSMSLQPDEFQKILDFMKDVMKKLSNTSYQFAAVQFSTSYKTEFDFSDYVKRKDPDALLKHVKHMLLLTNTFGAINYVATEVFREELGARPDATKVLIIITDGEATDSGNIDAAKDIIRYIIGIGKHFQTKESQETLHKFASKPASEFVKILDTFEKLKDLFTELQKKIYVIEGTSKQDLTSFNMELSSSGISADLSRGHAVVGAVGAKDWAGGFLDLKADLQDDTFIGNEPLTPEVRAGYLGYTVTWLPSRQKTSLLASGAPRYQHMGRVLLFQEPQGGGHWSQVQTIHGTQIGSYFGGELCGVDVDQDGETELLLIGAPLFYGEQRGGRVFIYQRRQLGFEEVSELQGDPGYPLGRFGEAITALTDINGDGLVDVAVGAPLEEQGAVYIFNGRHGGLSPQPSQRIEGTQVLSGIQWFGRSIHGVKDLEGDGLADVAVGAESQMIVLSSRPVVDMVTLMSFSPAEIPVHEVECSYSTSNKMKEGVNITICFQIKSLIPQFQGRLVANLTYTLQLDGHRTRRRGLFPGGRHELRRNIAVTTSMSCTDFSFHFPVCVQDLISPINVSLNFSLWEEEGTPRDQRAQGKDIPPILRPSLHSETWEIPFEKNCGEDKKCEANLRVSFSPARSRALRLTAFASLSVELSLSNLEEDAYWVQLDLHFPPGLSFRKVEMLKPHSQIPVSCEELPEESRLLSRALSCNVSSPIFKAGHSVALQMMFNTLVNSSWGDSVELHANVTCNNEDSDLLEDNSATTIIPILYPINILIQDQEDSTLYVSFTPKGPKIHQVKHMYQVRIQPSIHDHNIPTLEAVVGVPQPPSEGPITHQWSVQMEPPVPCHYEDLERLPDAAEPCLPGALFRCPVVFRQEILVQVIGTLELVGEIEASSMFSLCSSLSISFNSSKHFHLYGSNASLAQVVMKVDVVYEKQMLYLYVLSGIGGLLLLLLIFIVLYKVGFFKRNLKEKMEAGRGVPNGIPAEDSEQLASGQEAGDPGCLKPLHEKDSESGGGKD
Item-by-item account of IC50
Numbers only here, please. The scale is nM.

Answered examples (4):
| compound | IC50 / nM |
| --- | --- |
| Cc1cc(C(=O)NCc2cccc(O)c2)cc(Cl)c1C(=O)N[C@@H](CNC(=O)c1cccs1)C(=O)O | 1.5 |
| NCCCCCCCCCCC(=O)NC[C@H](NC(=O)c1ccc(C(=O)NCc2cccc(O)c2)cc1Cl)C(=O)O | 7.9 |
| NCCCC(=O)NC[C@H](NC(=O)c1ccc(C(=O)NCc2cccc(O)c2)cc1Cl)C(=O)O | 2.2 |
| O=C(NCc1cccc(O)c1)c1ccc(C(=O)N[C@@H](CNC(=O)c2cccnc2)C(=O)O)c(Cl)c1 | 1.3 |

Indicate its recorded IC50; the compound in question is COCCC1(C(=O)NC[C@H](NC(=O)c2ccc(C(=O)NCc3cccc(O)c3)cc2Cl)C(=O)O)CCCC1
2.2

Indicate its recorded IC50; the compound in question is O=C(NCc1cccc(O)c1)c1ccc(C(=O)N[C@@H](CNC(=O)c2cc(=O)[nH]c(=O)[nH]2)C(=O)O)c(Cl)c1
0.6

* * *

system: Mac-1 and LFA-1-mediated neutrophil binding to immobilized ICAM-1; test: Neutrophil (Mac-1 and LFA-1)/ICAM-1 cell-based screening assay; settings: human neutrophils
measurement_name: log10 IC50 (log10 of the value in nM)
Values reflect log10 of reported IC50 (nM).

Answered examples (5):
| compound | log10 IC50 |
| --- | --- |
| O=C(NCc1cccc(O)c1)c1cc(Cl)c(C(=O)N[C@@H](CNC(=O)c2cc(O)cc(O)c2)C(=O)O)c(Cl)c1 [Example 345] | -1.00 |
| Cc1cc(C(=O)NCc2cccc(O)c2)cc(C)c1C(=O)N[C@@H](CNC(=O)c1cc(F)cc(F)c1)C(=O)O [Example 337] | 1.08 |
| CC1(C(=O)NC[C@H](NC(=O)c2ccc(C(=O)NCc3cccc(O)c3)cc2Cl)C(=O)O)CCCCC1 [Example 105] | 1.97 |
| O=C(NCc1cccc2[nH]ncc12)c1ccc(C(=O)N[C@@H](CNC(=O)c2cccs2)C(=O)O)c(Cl)c1 [Example 327] | 1.30 |
| Cc1cc(C(=O)NCc2cccc(O)c2)cc(Cl)c1C(=O)N[C@@H](CNC(=O)c1cc(F)cc(F)c1)C(=O)O [Example 340] | 0.60 |

Indicate its recorded log10 IC50; the compound in question is Nc1cccc(C(=O)NC[C@H](NC(=O)c2ccc(C(=O)NCc3cccc(O)c3)cc2Cl)C(=O)O)c1 [Example 118]
1.57

Indicate its recorded log10 IC50; the compound in question is COc1ccc(C(=O)NC[C@H](NC(=O)c2c(Cl)cc(C(=O)NCc3cccc(O)c3)cc2Cl)C(=O)O)cc1O [Example 351]
0.43

* * *

Item-by-item account of pIC50
test system: cell-surface Mac-1 adhesion to immobilized fibrinogen (HL-60 cells); assay: Mac-1/Fibrinogen cell-based screening assay; parameters: species or system human; conditions: Homo sapiens, HL-60, HL-60 cells; read-out: Mac-1/Fgn Cell based Assay IC50
Reminder that pIC50 is minus the log10 of a molar concentration.

| compound | study_system | pIC50 |
| --- | --- | --- |
| C[C@@H](NC(=O)c1cc(Cl)c(C(=O)N[C@@H](CNC(=O)c2cccs2)C(=O)O)c(Cl)c1)c1cccc2ccccc12 [Example 346] | cell-surface Mac-1 adhesion to immobilized fibrinogen (HL-60 cells) | 8.40 |

Give pIC50 for COc1cccc(C(=O)NC[C@H](NC(=O)c2ccc(C(=O)NCc3cccc(O)c3)cc2Cl)C(=O)O)c1 [Example 76] tested on cell-surface Mac-1 adhesion to immobilized fibrinogen (HL-60 cells).
7.37

Give pIC50 for CNCC(=O)NC[C@H](NC(=O)c1ccc(C(=O)NCc2cccc(O)c2)cc1Cl)C(=O)O [Example 283] tested on cell-surface Mac-1 adhesion to immobilized fibrinogen (HL-60 cells).
6.78

Give pIC50 for O=C(NCc1cccc(O)c1)c1cc(Cl)c(C(=O)N[C@@H](CNC(=O)c2cccs2)C(=O)O)c(Cl)c1 [Example 342] tested on cell-surface Mac-1 adhesion to immobilized fibrinogen (HL-60 cells).
9.00

Give pIC50 for Cc1cc(C(=O)NCc2cccc(O)c2)ccc1C(=O)N[C@@H](CNC(=O)c1ccccc1)C(=O)O [Example 324] tested on cell-surface Mac-1 adhesion to immobilized fibrinogen (HL-60 cells).
7.49

Give pIC50 for O=C(NCc1cccc(O)c1)c1ccc(C(=O)N[C@@H](CNC(=O)c2ccno2)C(=O)O)c(Cl)c1 [Example 256] tested on cell-surface Mac-1 adhesion to immobilized fibrinogen (HL-60 cells).
7.62

Give pIC50 for Cc1cc(C(=O)NCc2cccc(O)c2)cc(C)c1C(=O)N[C@@H](CNC(=O)c1cc(F)cc(F)c1)C(=O)O [Example 337] tested on cell-surface Mac-1 adhesion to immobilized fibrinogen (HL-60 cells).
7.92

* * *

system: cell-surface Mac-1 adhesion to immobilized fibrinogen (HL-60 cells); experiment: Mac-1/Fibrinogen cell-based screening assay; set-up: species or system human; settings: Homo sapiens, HL-60, HL-60 cells; read-out: Mac-1/Fgn Cell based Assay IC50
pIC50: −log10 of the molar value.
// no strictly below 7 in pIC50; yes otherwise

| structure_as_smiles | discrete_label |
| --- | --- |
| O=C(NCc1cccc(O)c1)c1ccc(C(=O)N[C@@H](CNC(=O)c2cccc(F)c2)C(=O)O)c(Cl)c1 | yes |
| O=C(NCc1cccc(O)c1)c1ccc(C(=O)N[C@@H](CNC(=O)c2cccs2)C(=O)O)c(Br)c1 | yes |
| N[C@@H](COCc1ccccc1)C(=O)NC[C@H](NC(=O)c1ccc(C(=O)NCc2cccc(O)c2)cc1Cl)C(=O)O | no |

Would you kindly look at the next entry?
For this compound, is measured pIC50 7 or higher? O=C(NCc1cccc(O)c1)c1cc(Cl)c(C(=O)N[C@@H](CNC(=O)c2cccc(F)c2)C(=O)O)c(Cl)c1
yes
